tested on: cardiomyocytes derived from hiPSCs from a LQTS3 patient; experiment: cells; conditions: Homo sapiens, Cardiomyocyte, read-out: LQT-EC50 (μM) Shortening, LQT-3 cardiomyocytes, AP shortening
Reported EC50 values for a set of compounds
ASSAY METRIC: EC50

1. NC(COc1ccc2ccccc2c1)c1ccccc1 (stereo not shown)    8.7 µM
2. NC(COc1ccccc1C(F)(F)F)c1ccc2ccccc2c1 (stereo not shown)    1.79 µM
3. COCCNC(COc1c(C)ccnc1C)c1ccccc1 (stereo not shown)    46.6 µM
4. COCCNC(COc1cccnc1)c1ccccc1 (stereo not shown)    2.58 µM
5. Cc1ccccc1OCC(N)c1ccc2ccccc2c1 (stereo not shown)    8.83 µM
6. NC(COc1ccncc1)c1ccccc1 (stereo not shown)    3.82 µM
7. Cc1ccc(OCC(N)c2ccccc2)cn1 (stereo not shown)    67.5 µM
8. NC(COc1cccc2ccccc12)c1ccccc1 (stereo not shown)    0.82 µM
9. Cc1ncccc1OCC(N)c1ccccc1 (stereo not shown)    8.57 µM
10. Cc1cccc(C)c1OCC(N)c1ccc2ccccc2c1 (stereo not shown)    4.73 µM

###

test: Chemical stability in PBS buffer at pH 7.4 or 3.0, 37° C.; format: physicochemical; conditions: pH 3, 100 μM in PBS, 1% Ethanol, read-out: Half-Life @ pH 3.0 and 37° C.
Reported half-life at 100 μM values for a set of molecules
ASSAY METRIC: half-life at 100 μM

1. NC(COc1cc(C(F)(F)F)cc(C(F)(F)F)c1)c1ccccc1 (stereo not shown) [drawing 310]    > 30 days
2. Cc1cc(C)cc(OCC(N)c2ccccc2)c1 (stereo not shown) [drawing 309]    > 30 days
3. Cc1ccccc1OCC(N)c1ccccc1 (stereo not shown) [drawing 311]    > 15 days
4. NC(COc1ccccc1C(F)(F)F)c1ccccc1 (stereo not shown) [drawing 312]    > 15 days

###

tested on: cardiomyocytes derived from hiPSCs from a LQTS3 patient; conditions: LQT-3 cardiomyocytes, AP shortening
ASSAY METRIC: LQT-EC50 (μM) Shortening

1) NC(COc1ccnc(C(F)(F)F)c1)c1ccccc1 (stereo not drawn) [Compound 128]    Shortens
2) NC(COc1ccc(C(F)(F)F)nc1)c1ccccc1 (stereo not drawn) [Compound 117]    Does Not Shorten
3) Cc1ccc(OCC(N)c2ccccc2)c(C)n1 (stereo not drawn) [Compound 119]    Shortens
4) COCCNC(COc1cnccc1C(F)(F)F)c1ccccc1 (stereo not drawn) [Compound 124]    Shortens
5) Cc1cncc(OCC(N)c2ccccc2)c1 (stereo not drawn) [Compound 113]    Does Not Shorten
6) NC(COc1cnccc1C(F)(F)F)c1ccccc1 (stereo not drawn) [Compound 115]    Does Not Shorten
7) COCCNC(COc1ccc(C)nc1C)c1ccccc1 (stereo not drawn) [Compound 125]    Does Not Shorten
8) COCCNC(COc1cnccc1C)c1ccccc1 (stereo not drawn) [Compound 123]    Shortens
9) NC(COc1cc(C(F)(F)F)cc(C(F)(F)F)c1)c1ccc2ccccc2c1 (stereo not drawn) [Compound 132]    Shortens
10) COCCNC(COc1ccncc1)c1ccccc1 (stereo not drawn) [Compound 127]    Does Not Shorten
11) Cc1cc(C)cc(OCC(N)c2ccc3ccccc3c2)c1 (stereo not drawn) [Compound 135]    Shortens
12) Cc1ccncc1OCC(N)c1ccccc1 (stereo not drawn) [Compound 112]    Does Not Shorten
13) Cc1ccnc(C)c1OCC(N)c1ccccc1 (stereo not drawn) [Compound 118]    Does Not Shorten
14) NC(COc1cncc(C(F)(F)F)c1)c1ccccc1 (stereo not drawn) [Compound 116]    Shortens
15) Cc1cc(C)c(OCC(N)c2ccccc2)cn1 (stereo not drawn) [Compound 120]    Does Not Shorten

###

Reported Cessation of Beating values for a set of molecules
test system: normal human induced pluripotent stem cell (hiPSC) cardiomyocyte; conditions: normal hiPSC cardiomyocytes
ASSAY METRIC: Cessation of Beating (µM)

1. CCCCNC(COc1cccc(C)c1C)c1ccccc1 (stereo not drawn)    133
2. Cl.NC(COc1cccc(C(F)(F)F)c1)c1ccccc1 (stereo not drawn)    66
3. CC(N)COc1cccc(C(F)(F)F)c1.Cl (stereo not drawn)    200

###

assay: Metabolic stability in human liver microsomes; type: in vitro ADME; conditions: human, liver microsomes, pH 7.4, liver microsomes + NADPH; species (human); read-out: metabolic stability in liver microsomes T1/2
ASSAY METRIC: half-life at 50 μM

1) Cc1ccccc1OCC(N)c1ccccc1 (stereo not drawn) [Compound 25, 1-phenyl-2-(o-tolyloxy)ethanamine]    > 1 h
2) Cl.NC(COc1cc(C(F)(F)F)cc(C(F)(F)F)c1)c1ccccc1 (stereo not drawn) [Compound 78]    > 1 h
3) Cc1cc(C)cc(OCC(N)c2ccccc2)c1.Cl (racemic) [Compound 70]    > 1 h

###

Reported DNaP/Kr values for a set of compounds
biological target: hERG potassium channel (IKr) (Homo sapiens); assay: Automated patch clamp, hERG (IKr) expressed in CHO cells; settings: ratio, Example 2
Sequence (Q12809 whole entry): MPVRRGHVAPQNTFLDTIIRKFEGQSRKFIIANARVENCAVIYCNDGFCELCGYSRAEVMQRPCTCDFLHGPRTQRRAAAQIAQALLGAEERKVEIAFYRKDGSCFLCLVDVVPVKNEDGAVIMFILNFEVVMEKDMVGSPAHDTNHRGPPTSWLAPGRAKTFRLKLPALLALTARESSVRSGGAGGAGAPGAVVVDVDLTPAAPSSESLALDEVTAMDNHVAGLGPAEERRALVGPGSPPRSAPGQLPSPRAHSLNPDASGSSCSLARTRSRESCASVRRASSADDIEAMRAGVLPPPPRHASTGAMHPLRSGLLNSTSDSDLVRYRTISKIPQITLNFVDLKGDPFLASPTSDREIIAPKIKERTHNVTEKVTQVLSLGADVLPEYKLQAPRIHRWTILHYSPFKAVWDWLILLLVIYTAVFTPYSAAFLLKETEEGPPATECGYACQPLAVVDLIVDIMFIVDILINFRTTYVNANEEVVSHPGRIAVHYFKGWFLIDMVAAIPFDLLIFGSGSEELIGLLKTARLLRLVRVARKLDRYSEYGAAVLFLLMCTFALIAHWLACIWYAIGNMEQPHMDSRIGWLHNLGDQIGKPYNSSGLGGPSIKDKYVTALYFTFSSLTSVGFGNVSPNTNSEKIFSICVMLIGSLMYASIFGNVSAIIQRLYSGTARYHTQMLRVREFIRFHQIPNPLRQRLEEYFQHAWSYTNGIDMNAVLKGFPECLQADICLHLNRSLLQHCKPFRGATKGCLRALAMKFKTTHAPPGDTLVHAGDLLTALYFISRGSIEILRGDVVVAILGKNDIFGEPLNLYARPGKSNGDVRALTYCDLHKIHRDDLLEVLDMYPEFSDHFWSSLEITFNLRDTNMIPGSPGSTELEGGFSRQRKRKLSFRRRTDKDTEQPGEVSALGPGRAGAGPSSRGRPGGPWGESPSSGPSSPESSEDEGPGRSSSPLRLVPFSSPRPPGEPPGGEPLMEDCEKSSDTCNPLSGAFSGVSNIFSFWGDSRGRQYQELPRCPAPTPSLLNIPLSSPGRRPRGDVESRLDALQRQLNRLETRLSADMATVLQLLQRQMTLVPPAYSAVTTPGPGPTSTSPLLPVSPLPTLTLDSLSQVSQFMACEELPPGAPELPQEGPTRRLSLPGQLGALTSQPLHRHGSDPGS
ASSAY METRIC: DNaP/Kr

1) COCCNC(COc1ccccc1C)c1ccccc1.Cl (stereo not shown)    1.32
2) COCCNC(COc1cccc(C)c1C)c1ccccc1 (racemic)    0.93
3) COCCNC(COc1cc(C(F)(F)F)cc(C(F)(F)F)c1)c1ccccc1.Cl (stereo not shown)    2.7
4) Cc1ccc(OCC(N)c2ccccc2)c(C)c1.Cl (stereo not shown)    3.7

###

tested on: cardiomyocytes derived from hiPSCs from a LQTS3 patient; test: cells; conditions: Homo sapiens, Cardiomyocyte, read-out: LQT-EC50 (μM) Shortening, pyridyl derivatives
ASSAY METRIC: EC50 (µM)

1) Cc1cccnc1OCC(=NOCc1ccccc1)c1ccccc1 [Compound 19]    1.38
2) NC(COc1ncccc1C(F)(F)F)c1ccccc1 (centres unmarked) [Compound 96]    20.7
3) Cc1cccnc1OCC(N)c1ccccc1 (centres unmarked) [Compound 94]    12.8

###

experiment: Metabolic stability in rat liver microsomes; assay type: in vitro ADME; details: rat, liver microsomes, pH 7.4; 50 μM, NADPH-generating system, 37° C.; read-out: Liver Microsomes t1/2 Rat
ASSAY METRIC: half-life at 50 μM (min)

1) NC(COc1ccccc1C(F)(F)F)c1ccccc1 (stereo not drawn) [drawing 304]    198
2) Cc1ccccc1OCC(N)c1ccccc1 (stereo not drawn) [drawing 303]    475
3) Cc1cc(C)cc(OCC(N)c2ccccc2)c1 (stereo not drawn) [drawing 301]    52

###

system: cardiomyocytes derived from hiPSCs from a LQTS3 patient; conditions: human, 5 min
ASSAY METRIC: LQT-Cessation Dose (µM)

1. Cc1cccc(C)c1OC[C@@H](N)C1CC1.Cl    200
2. Cc1cccc(C)c1OC[C@H](N)C1CC1.Cl    200
3. COCCNC(COc1cc(C)cc(C)c1)c1ccccc1.Cl (stereo not shown)    200
4. Cc1cccc(C)c1OCC(C)NCc1ccccc1 (stereo not shown)    133

###

test: Metabolism in human hepatic S9
ASSAY METRIC: metabolism in human liver S-9 judged by HPLC

1) Cc1ccccc1OCC(N)c1ccccc1 (stereo not shown)    detectably metabolized
2) COCCNC(COc1cccc(C)c1C)c1ccccc1 (racemic)    detectably metabolized
3) Cc1cc(C)cc(OCC(N)c2ccccc2)c1.Cl (racemic)    detectably metabolized

###

test system: normal human induced pluripotent stem cell (hiPSC) cardiomyocyte; conditions: pyridyl derivatives
ASSAY METRIC: WT-Cessation Dose

1) NC(COc1ncccc1C(F)(F)F)c1ccccc1 (centres unmarked) [Compound 96]    No cessation of beating
2) CC(N)COc1ccccn1 (centres unmarked) [Compound 48, (Pyridin-2-yloxy)propan-2-amine]    No cessation of beating
3) Cc1cccnc1OCC(=NOCc1ccccc1)c1ccccc1 [Compound 19]    133 µM
4) NC(COc1ccccn1)c1ccccc1 (centres unmarked) [Compound 20, 1-phenyl-2-(pyridin-2-yloxy)ethanamine]    No cessation of beating

###

target: Nav1.5 sodium channel transfected into HEK293 cells (Homo sapiens); test: Patch clamp electrophysiology, peak (INaP) and late (INaL) sodium current in transfected cells; conditions: ratio peak IC50/late IC50
Could you please mark Yes for values of DNap/NaL below 9 and No for values at or above it?

1) Cc1cc(C)cc(OCC(N)C2CCCCC2)c1.Cl (stereo not shown)    No
2) Cc1ccccc1OCC(C)N (stereo not shown)    Yes
3) COCCNC(COc1cc(C(F)(F)F)cc(C(F)(F)F)c1)c1ccccc1.Cl (stereo not shown)    No
4) NC(COc1ccccc1C(F)(F)F)c1ccccc1 (stereo not shown)    No
5) Cc1cccc(C)c1OCC(N)C1CC1 (stereo not shown)    No
6) Cc1cccnc1OCC(O)c1ccccc1 (stereo not shown)    Yes
7) Cc1cccc(C)c1OCC(N)C(C)(C)C (stereo not shown)    Yes
8) COCCNC(COc1ccccc1C)c1ccccc1.Cl (stereo not shown)    No
9) Cc1ccc(OCC(N)c2ccccc2)c(C)c1.Cl (stereo not shown)    No
